Measured pIC50 (Thymidylate synthase (Escherichia coli))
Give bare numbers, as −log10 of the molar value.

{"compound": "CCc1sc2nc(N)[nH]c(=O)c2c1Sc1cccc(Cl)c1", "assay readout": "pIC50", "value measured": 5.64}
{"compound": "CCc1sc2nc(N)[nH]c(=O)c2c1Sc1ccccc1", "assay readout": "pIC50", "value measured": 4.55}

Give pIC50 for all compounds that follow.
1. CCc1sc2nc(N)[nH]c(=O)c2c1Sc1ccc(Cl)cc1
2. CCc1sc2nc(N)[nH]c(=O)c2c1Sc1ccc(F)cc1
3. CCc1sc2nc(N)[nH]c(=O)c2c1Sc1ccc(Br)cc1
4. CCc1sc2nc(N)[nH]c(=O)c2c1Sc1cc(OC)cc(OC)c1
5. CCc1sc2nc(N)[nH]c(=O)c2c1Sc1cc(Cl)cc(Cl)c1

1: 5.60; 2: 5.54; 3: 5.66; 4: 5.74; 5: 5.92

For each of the items listed, what is its pIC50?
1. CCc1sc2nc(N)[nH]c(=O)c2c1Sc1ccncc1
2. CCc1sc2nc(N)[nH]c(=O)c2c1Sc1ccc([N+](=O)[O-])cc1
3. CCc1sc2nc(N)[nH]c(=O)c2c1Sc1ccccc1Cl
4. CCc1sc2nc(N)[nH]c(=O)c2c1Sc1ccc(C(=O)N[C@@H](CCC(=O)O)C(=O)O)cc1
5. CCc1sc2nc(N)[nH]c(=O)c2c1Sc1ccc2ccccc2c1

1. 5.70
2. 5.77
3. 5.70
4. 7.74
5. 5.85

The compound listed as `CCc1sc2nc(N)[nH]c(=O)c2c1Sc1ccc(Cl)c(Cl)c1` has a reported pIC50 of 5.64

* * *

experimental system: Bifunctional dihydrofolate reductase-thymidylate synthase (Toxoplasma gondii)
Would you kindly list IC50 for each of these compounds?
Give bare numbers, in nM.

{"compound": "CCc1sc2nc(N)[nH]c(=O)c2c1Sc1ccc([N+](=O)[O-])cc1", "value measured": 1000}

Provide each entry's IC50 from the list below.
1. CCc1sc2nc(N)[nH]c(=O)c2c1Sc1ccc2ccccc2c1
2. CCc1sc2nc(N)[nH]c(=O)c2c1Sc1cc(Cl)cc(Cl)c1
3. CCc1sc2nc(N)[nH]c(=O)c2c1Sc1ccccc1Cl
4. CCc1sc2nc(N)[nH]c(=O)c2c1Sc1ccc(F)cc1
5. CCc1sc2nc(N)[nH]c(=O)c2c1Sc1cccc(Cl)c1

1: 1100; 2: 1600; 3: 2500; 4: 2600; 5: 1800

Hi team, please reply with IC50 for each item in this list.
1. CCc1sc2nc(N)[nH]c(=O)c2c1Sc1ccccc1
2. CCc1sc2nc(N)[nH]c(=O)c2c1Sc1ccncc1
3. CCc1sc2nc(N)[nH]c(=O)c2c1Sc1ccc(Cl)c(Cl)c1
4. CCc1sc2nc(N)[nH]c(=O)c2c1Sc1ccc(C(=O)N[C@@H](CCC(=O)O)C(=O)O)cc1
5. CCc1sc2nc(N)[nH]c(=O)c2c1Sc1cc(OC)cc(OC)c1
6. CCc1sc2nc(N)[nH]c(=O)c2c1Sc1ccc(Br)cc1

[8400, 1700, 1000, 90, 2300, 2200]

* * *

Measured IC50 (Thymidylate synthase (Homo sapiens, UniProt P04818))

{"compound": "CCc1sc2nc(N)[nH]c(=O)c2c1Sc1ccccc1Cl", "IC50": "1100 nM"}

Each compound below has a reported value. Please supply its IC50.
1. CCc1sc2nc(N)[nH]c(=O)c2c1Sc1ccc(Cl)c(Cl)c1
2. CCc1sc2nc(N)[nH]c(=O)c2c1Sc1cc(Cl)cc(Cl)c1
3. CCc1sc2nc(N)[nH]c(=O)c2c1Sc1ccc(Cl)cc1
4. CCc1sc2nc(N)[nH]c(=O)c2c1Sc1ccc([N+](=O)[O-])cc1
5. CCc1sc2nc(N)[nH]c(=O)c2c1Sc1ccccc1
6. CCc1sc2nc(N)[nH]c(=O)c2c1Sc1ccc(Br)cc1
7. CCc1sc2nc(N)[nH]c(=O)c2c1Sc1ccc2ccccc2c1
8. CCc1sc2nc(N)[nH]c(=O)c2c1Sc1cc(OC)cc(OC)c1

1: 230 nM; 2: 690 nM; 3: 750 nM; 4: 220 nM; 5: 5600 nM; 6: 390 nM; 7: 2300 nM; 8: 1200 nM

* * *

experimental system: Bifunctional dihydrofolate reductase-thymidylate synthase (Toxoplasma gondii, UniProt Q07422)
Sequence (Q07422 whole entry): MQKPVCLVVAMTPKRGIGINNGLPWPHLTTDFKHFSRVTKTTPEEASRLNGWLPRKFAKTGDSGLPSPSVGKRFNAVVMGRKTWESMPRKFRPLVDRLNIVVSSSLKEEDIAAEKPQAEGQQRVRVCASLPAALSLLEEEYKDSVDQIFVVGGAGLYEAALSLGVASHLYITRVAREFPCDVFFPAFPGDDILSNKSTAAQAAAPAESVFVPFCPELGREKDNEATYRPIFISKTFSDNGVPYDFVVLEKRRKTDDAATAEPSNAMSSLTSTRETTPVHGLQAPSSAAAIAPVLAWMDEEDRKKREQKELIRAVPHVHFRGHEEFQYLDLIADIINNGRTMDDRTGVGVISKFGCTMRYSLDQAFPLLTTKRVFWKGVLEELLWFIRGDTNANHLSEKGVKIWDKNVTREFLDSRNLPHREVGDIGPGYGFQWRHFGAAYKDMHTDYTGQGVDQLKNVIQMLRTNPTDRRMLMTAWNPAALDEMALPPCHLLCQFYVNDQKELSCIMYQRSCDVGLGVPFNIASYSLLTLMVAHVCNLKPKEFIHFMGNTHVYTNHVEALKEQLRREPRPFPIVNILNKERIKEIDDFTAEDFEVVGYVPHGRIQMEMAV
assay readout: pIC50
Give bare numbers, as −log10 of the molar value.

Hey, quick one: what's pIC50 for each of these?
1. CCc1sc2nc(N)[nH]c(=O)c2c1Sc1cc(OC)cc(OC)c1
2. CCc1sc2nc(N)[nH]c(=O)c2c1Sc1ccc([N+](=O)[O-])cc1
3. CCc1sc2nc(N)[nH]c(=O)c2c1Sc1ccc2ccccc2c1
4. CCc1sc2nc(N)[nH]c(=O)c2c1Sc1ccc(Br)cc1
5. CCc1sc2nc(N)[nH]c(=O)c2c1Sc1cc(Cl)cc(Cl)c1
6. CCc1sc2nc(N)[nH]c(=O)c2c1Sc1ccc(F)cc1

[7.62, 8.06, 8.08, 7.89, 7.85, 7.60]

Please give pIC50, item by item, for the list that follows.
1. CCc1sc2nc(N)[nH]c(=O)c2c1Sc1ccncc1
2. CCc1sc2nc(N)[nH]c(=O)c2c1Sc1ccc(C(=O)N[C@@H](CCC(=O)O)C(=O)O)cc1
3. CCc1sc2nc(N)[nH]c(=O)c2c1Sc1ccccc1Cl
4. CCc1sc2nc(N)[nH]c(=O)c2c1Sc1ccc(Cl)c(Cl)c1
5. CCc1sc2nc(N)[nH]c(=O)c2c1Sc1cccc(Cl)c1

7.77
8.68
7.57
8.09
7.92

State the recorded pIC50 for every item in the following list.
1. CCc1sc2nc(N)[nH]c(=O)c2c1Sc1cc(OC)ccc1OC
2. CCc1sc2nc(N)[nH]c(=O)c2c1Sc1ccccc1

7.85
7.48

* * *

experimental system: Dihydrofolate reductase (Homo sapiens, UniProt P00374)
Sequence (P00374 whole entry): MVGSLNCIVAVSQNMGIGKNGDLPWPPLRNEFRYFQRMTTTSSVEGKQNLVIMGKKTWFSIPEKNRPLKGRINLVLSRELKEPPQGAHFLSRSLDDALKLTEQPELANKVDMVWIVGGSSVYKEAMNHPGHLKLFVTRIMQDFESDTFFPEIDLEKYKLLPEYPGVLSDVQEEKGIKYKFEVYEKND
The label y is reserved for IC50 strictly under 600 nM; n covers values equal to or above it.

{"compound": "CCc1sc2nc(N)[nH]c(=O)c2c1Sc1ccc(Br)cc1", "assigned class": "y"}
{"compound": "CCc1sc2nc(N)[nH]c(=O)c2c1Sc1cccc(Cl)c1", "assigned class": "y"}
{"compound": "CCc1sc2nc(N)[nH]c(=O)c2c1Sc1ccc([N+](=O)[O-])cc1", "assigned class": "y"}

Criterion: IC50 strictly below 600 nM. Is it met by `CCc1sc2nc(N)[nH]c(=O)c2c1Sc1ccccc1` ? n

Find out if reported IC50 for `CCc1sc2nc(N)[nH]c(=O)c2c1Sc1cc(OC)cc(OC)c1` is less than 600 nM y

* * *

Each entry below carries its measured pIC50, system: Thymidylate synthase (Homo sapiens, UniProt P04818).
Sequence (P04818 whole entry): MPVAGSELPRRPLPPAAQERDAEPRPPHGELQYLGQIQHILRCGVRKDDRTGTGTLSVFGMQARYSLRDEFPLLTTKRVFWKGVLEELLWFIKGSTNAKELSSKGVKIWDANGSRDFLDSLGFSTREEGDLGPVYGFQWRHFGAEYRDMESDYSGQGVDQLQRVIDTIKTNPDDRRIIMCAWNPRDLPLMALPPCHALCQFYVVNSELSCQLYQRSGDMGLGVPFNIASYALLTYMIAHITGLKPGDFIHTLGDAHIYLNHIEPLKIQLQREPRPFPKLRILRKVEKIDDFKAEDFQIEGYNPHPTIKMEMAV
Give bare numbers, as −log10 of the molar value.

Consider the following illustrative entries.
{"compound": "CCc1sc2nc(N)[nH]c(=O)c2c1Sc1ccc(F)cc1", "pIC50": 5.89}
{"compound": "CCc1sc2nc(N)[nH]c(=O)c2c1Sc1cccc(Cl)c1", "pIC50": 6.42}
{"compound": "CCc1sc2nc(N)[nH]c(=O)c2c1Sc1cc(OC)ccc1OC", "pIC50": 5.34}

The record that follows has no pIC50 shown yet.
The measured pIC50 associated with `CCc1sc2nc(N)[nH]c(=O)c2c1Sc1ccc(C(=O)N[C@@H](CCC(=O)O)C(=O)O)cc1` reads 7.27

* * *

As a worked illustration, we turn to log10(IC50) data collected for UniProt:P00374.
// units: nM (pre-log); metric: IC50; scale: log10

{"compound": "CCc1sc2nc(N)[nH]c(=O)c2c1Sc1ccc(Cl)cc1", "log10(IC50)": 2.48}

For each listed entry, give its log10(IC50).
1. CCc1sc2nc(N)[nH]c(=O)c2c1Sc1ccc(C(=O)N[C@@H](CCC(=O)O)C(=O)O)cc1
2. CCc1sc2nc(N)[nH]c(=O)c2c1Sc1ccccc1Cl

1.28
2.78

Lab note: each compound below needs its log10(IC50) filled in.
1. CCc1sc2nc(N)[nH]c(=O)c2c1Sc1cc(Cl)cc(Cl)c1
2. CCc1sc2nc(N)[nH]c(=O)c2c1Sc1ccc2ccccc2c1

2.45
3.34
